TEST_DESCRIPTION: RP, Agilent ZORBAX Eclipse XDB-C18, 100 × 2.1 mm, 1.8 µm, 50 °C, 0.4 mL/min, estimated dead time 0.55 min; A: water + 0.1% formic acid; B: methanol; gradient (min/%B) 0/30 2/30 5/52 15/65 20/78 22.5/78 29/90 38/100
MEASUREMENT_PARAMETERS: stereoisomer not certain
OBSERVATION_TYPE: log10 LC retention time (log10 of the value in min)
All values: base-10 log of LC retention time in min.

CCCCCC=CCC=CCCCCCCCC(=O)O : 1.46
CCC=CCC=CCC=CCC=CCC=CCCCC(=O)O : 1.44
CCCCCCCCCCCCCCCCCCCCCC(=O)O : 1.53
CCC=CCC=CCC=CCC=CCC=CCC=CCCC(=O)O : 1.45
CCCCCC(=O)O : 1.24

Q: Recorded log10 LC retention time for Nc1ccccc1C(=O)CC(N)C(=O)O (stereo not given) , please?
Result: 0.96

Q: Do the same for CCCCCCCCCCCCC(=O)O please
Result: 1.42

Q: Do the same for NC(=O)CC(N)C(=O)O (stereo not given) please
Result: 0.57

Q: Do the same for CCCCCCC(=O)O please
Result: 1.29

Q: Do the same for CCCCCCCCCCCC(=O)O please
Result: 1.41

Q: Do the same for CC(C)C(N)C(=O)O (stereo not given) please
Result: 0.97

Q: Do the same for CCCCCC(C)C(=O)O (stereo not given) please
Result: 1.31

Q: Do the same for NC(Cc1ccc(O)cc1)C(=O)O (stereo not given) please
Result: 1.31

Q: Do the same for CCCCC(CC)C(=O)O (stereo not given) please
Result: 1.31

The reported numbers originate from the RepoRT retention time repository (doi:10.1016/j.aca.2019.02.001).
